molecular target: Cytochrome P450 2C18 (Homo sapiens) (UniProt P33260); assay: NVS_ADME_hCYP2C18: NovaScreen (NVS) CYP450-related Enzyme Activity (ADME) Assay for human CYP2C18 (AID 2283103)
Sequence (P33260 whole entry, looked up): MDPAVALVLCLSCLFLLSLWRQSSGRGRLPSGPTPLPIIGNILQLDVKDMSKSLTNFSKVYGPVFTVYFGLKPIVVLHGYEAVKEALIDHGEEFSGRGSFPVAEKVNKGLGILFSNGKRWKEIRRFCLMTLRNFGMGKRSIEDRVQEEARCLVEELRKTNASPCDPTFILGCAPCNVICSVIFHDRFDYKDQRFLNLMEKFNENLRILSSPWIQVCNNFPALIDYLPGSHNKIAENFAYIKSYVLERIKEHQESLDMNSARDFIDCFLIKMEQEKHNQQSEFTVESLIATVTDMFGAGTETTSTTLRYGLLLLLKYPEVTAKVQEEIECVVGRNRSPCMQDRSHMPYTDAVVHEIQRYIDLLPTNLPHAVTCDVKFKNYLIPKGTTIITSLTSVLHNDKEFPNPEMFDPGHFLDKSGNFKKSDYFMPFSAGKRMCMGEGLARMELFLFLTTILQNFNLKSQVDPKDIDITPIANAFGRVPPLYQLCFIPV
Calls of active or inactive are those of the source. How the source made its calls: active means hit-call score of the fitted dose curve at least 0.9, where 1 is the maximum; inactive means score below 0.9.
Could you please pick one outcome from this set? 1 for active, -1 for inactive

> print(dat)
                                   compound  assigned.label
1  CCCCC(CC)COC(=O)c1ccccc1C(=O)O (stereo not drawn)              -1
2            CCCCOCCOCCOCc1cc2c(cc1CCC)OCO2               1
3                      CSC(=O)c1cccc2nnsc12               1
4           CCOC(=O)NCCOc1ccc(Oc2ccccc2)cc1               1
5  C=CCOC(Cn1ccnc1)c1ccc(Cl)cc1Cl (stereo not drawn)               1

Could you kindly confirm the outcome this assay logged for O=c1c(-c2ccc(O)cc2)coc2cc(O)cc(O)c12 ?
-1

Could you kindly confirm the outcome this assay logged for S=C([S-])NCCNC(=S)[S-].[Mn+2] ?
1

Could you kindly confirm the outcome this assay logged for CCCCC(CC)CN1C(=O)C2C3C=CC(C3)C2C1=O (stereo not drawn) ?
1

----------
test: CCTE_Shafer_MEA_dev_LDH: CCTE's Lactate Dehydrogenase Assay for Cytotoxicity in the Neural Network Formation Assay, Shafer Lab (AID 2284068);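 further: exposure for twelve days from plating with re-dosing on DIV 5 and 9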
Records with an inconclusive call do not appear. Activity calls are given as the source filed them. Rule for the calls: active = hit-call score of the fitted dose curve at least 0.9, where 1 is the maximum; inconclusive = response in the unintended direction; inactive = score below 0.9.
Could you please pick one outcome from this set? active, inactive

> print(dat)
             compound  assigned.label
1  O=C(O)CNCP(=O)(O)O        inactive

Could you kindly confirm the outcome this assay logged for CCOP(=O)(OCC)SCSCC ?
inactive

Could you kindly confirm the outcome this assay logged for c1ccc2c(c1)cc1ccc3cccc4ccc2c1c34 ?
inactive

----------
molecular target: Hepatocyte nuclear factor 6 (Homo sapiens) (UniProt Q9UBC0); test: ATG_HNF6_CIS: Attagene CIS-FACTORIAL HepG2 Assay for human Hepatocyte Nuclear Factor 6 (HNF6) (AID 2282952); settings: HepG2 Attagene cis-factorial HNF6 reporter transcription; actives raise or lower the signal
Sequence (Q9UBC0 whole entry, looked up): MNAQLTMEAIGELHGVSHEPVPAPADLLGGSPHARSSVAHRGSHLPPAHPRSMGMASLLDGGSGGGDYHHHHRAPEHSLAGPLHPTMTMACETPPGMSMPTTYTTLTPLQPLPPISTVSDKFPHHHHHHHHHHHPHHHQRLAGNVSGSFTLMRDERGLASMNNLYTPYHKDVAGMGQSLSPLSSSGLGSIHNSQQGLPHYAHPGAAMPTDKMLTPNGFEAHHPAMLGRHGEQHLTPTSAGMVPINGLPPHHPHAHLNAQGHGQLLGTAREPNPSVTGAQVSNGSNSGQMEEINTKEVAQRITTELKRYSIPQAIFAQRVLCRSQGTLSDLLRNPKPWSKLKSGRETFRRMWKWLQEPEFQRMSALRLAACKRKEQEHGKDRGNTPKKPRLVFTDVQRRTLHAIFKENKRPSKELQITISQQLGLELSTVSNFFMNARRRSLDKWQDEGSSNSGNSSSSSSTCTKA
Activity calls are given as the source filed them. Rule for the calls: active = hit-call score of the fitted dose curve at least 0.9, where 1 is the maximum; inactive = score below 0.9.
Could you please pick one outcome from this set? y = active, n = inactive

Worked examples follow.
> print(dat)
                 compound  assigned.label
1                C=COCCCl               n
2              ClCCCCCCCl               n
3     CC=Cc1ccc2c(c1)OCO2               n
4  O=S(=O)(O)OOS(=O)(=O)O               n
5        N#Cc1cccc(C#N)c1               n

Could you kindly confirm the outcome this assay logged for C[C@]12CC[C@H](O)C[C@H]1CC[C@@H]1[C@@H]2C[C@@H](O)[C@]2(C)[C@@H](C3=CC(=O)OC3)CC[C@]12O ?
y

Could you kindly confirm the outcome this assay logged for CC(=O)c1cc2c(cc1C)C(C)(C)C(C)CC2(C)C (stereo not drawn) ?
y

Could you kindly confirm the outcome this assay logged for CC(O)CN(CC(C)O)CC(C)O (stereo not drawn) ?
n

Could you kindly confirm the outcome this assay logged for O=c1c2ccccc2c(=O)c2c1cc(Cl)c1[nH]c3c([nH]c12)c(Cl)cc1c(=O)c2ccccc2c(=O)c13 ?
n

Could you kindly confirm the outcome this assay logged for O=C(NCNC(=O)NC1C(=O)NC(=O)N1CO)NC1C(=O)NC(=O)N1CO (stereo not drawn) ?
n

Could you kindly confirm the outcome this assay logged for O=c1[nH]c(Cl)c(Cl)cc1Cl ?
n

Could you kindly confirm the outcome this assay logged for CN(N=O)c1ccccc1 ?
n

Could you kindly confirm the outcome this assay logged for N#CCNCC#N ?
n

----------
molecular target: human Tyrosine Protein Kinase Receptor Tie-2 (Tie2), TEK (gene 7010) (UniProt Q02763); test: NVS_ENZ_hTie2: NovaScreen (NVS) Enzymatic Assay for human Tyrosine Protein Kinase Receptor Tie-2 (Tie2) (AID 2283225)
Sequence (Q02763 whole entry, looked up): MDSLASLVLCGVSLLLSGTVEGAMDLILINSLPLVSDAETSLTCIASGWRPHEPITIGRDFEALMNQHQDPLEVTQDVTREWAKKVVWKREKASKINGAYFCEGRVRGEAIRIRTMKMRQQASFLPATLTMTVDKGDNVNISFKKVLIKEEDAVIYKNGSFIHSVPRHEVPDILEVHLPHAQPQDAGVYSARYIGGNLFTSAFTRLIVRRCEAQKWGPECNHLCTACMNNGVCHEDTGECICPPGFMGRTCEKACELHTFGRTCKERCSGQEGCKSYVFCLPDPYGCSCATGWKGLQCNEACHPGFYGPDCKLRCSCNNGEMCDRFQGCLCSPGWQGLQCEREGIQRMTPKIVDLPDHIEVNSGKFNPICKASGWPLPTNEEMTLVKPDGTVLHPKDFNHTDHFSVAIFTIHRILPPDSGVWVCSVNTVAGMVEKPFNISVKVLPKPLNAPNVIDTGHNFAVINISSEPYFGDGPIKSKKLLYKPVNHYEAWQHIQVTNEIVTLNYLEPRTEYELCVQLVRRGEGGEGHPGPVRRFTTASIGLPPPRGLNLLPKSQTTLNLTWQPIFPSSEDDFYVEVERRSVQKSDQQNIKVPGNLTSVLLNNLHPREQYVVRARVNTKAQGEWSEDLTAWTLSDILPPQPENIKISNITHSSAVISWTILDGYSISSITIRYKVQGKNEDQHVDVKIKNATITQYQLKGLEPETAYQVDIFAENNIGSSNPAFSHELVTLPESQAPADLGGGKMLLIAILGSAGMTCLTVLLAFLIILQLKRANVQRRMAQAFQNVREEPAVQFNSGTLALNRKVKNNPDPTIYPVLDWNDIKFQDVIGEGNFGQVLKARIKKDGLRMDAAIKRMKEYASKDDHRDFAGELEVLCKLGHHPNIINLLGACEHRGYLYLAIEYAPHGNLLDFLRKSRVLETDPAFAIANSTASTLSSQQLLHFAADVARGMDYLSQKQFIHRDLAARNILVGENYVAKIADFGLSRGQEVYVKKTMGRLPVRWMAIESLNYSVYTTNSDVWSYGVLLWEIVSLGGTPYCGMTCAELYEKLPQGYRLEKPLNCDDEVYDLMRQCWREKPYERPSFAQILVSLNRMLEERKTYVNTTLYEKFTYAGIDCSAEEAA
Inconclusive results are not listed. Calls of active or inactive are those of the source. How the source made its calls: active means hit-call score of the fitted dose curve at least 0.9, where 1 is the maximum; inconclusive means response in the unintended direction; inactive means score below 0.9.
Could you please pick one outcome from this set? t (active), f (inactive)

Worked examples follow.
> print(dat)
                                    compound  assigned.label
 1  C[C@]12CC[C@@H]3c4ccc(O)cc4C[C@@H](CCCCCCCCCS(=O)CCCC(F)(F)C(F)(F)F)[C@H]3[C@@H]1CC[C@@H]2O (some centres undefined)               f
 2  O=C(c1ccc(OCCN2CCCCC2)cc1)c1c(-c2ccc(O)cc2)sc2cc(O)ccc12               t
 3        CCCCCCCCCCCCCC[P+](CCCC)(CCCC)CCCC               t
 4                             Cc1ccc(N)cc1O               f
 5  Cc1[nH]nc2c1N=C(c1ccccc1Cl)c1cc([N+](=O)[O-])ccc1N2               f
 6  Cc1nc(-c2ccccn2)ncc1C(=O)Nn1cc(C)c2cc(F)ccc21               f
 7    O=C(Oc1ccccc1)c1cccc(C(=O)Oc2ccccc2)c1               f
 8                          O=C(CCl)c1ccccc1               f
 9                           CCCC(CCC)C(=O)O               f
10                             CCCCCCCC(=O)O               f

Could you kindly confirm the outcome this assay logged for C[Si]1(C)O[Si](C)(C)O[Si](C)(C)O[Si](C)(C)O1 ?
f

Could you kindly confirm the outcome this assay logged for CC/C(=C(/CC)c1ccc(O)cc1)c1ccc(O)cc1 ?
f

Could you kindly confirm the outcome this assay logged for CCN(CC)CCNc1ccc(CNC=O)c2sc3ccc(OC)cc3c(=O)c12 ?
f

Could you kindly confirm the outcome this assay logged for CC(C)(c1ccc(O)cc1)c1ccc(O)cc1 ?
f

Could you kindly confirm the outcome this assay logged for CC(=O)OCCC(C)C ?
f

Could you kindly confirm the outcome this assay logged for O=[N+]([O-])c1ccc(Cl)cc1 ?
f

Could you kindly confirm the outcome this assay logged for CC[C@H](C)C(=O)O[C@H]1C[C@@H](C)C=C2C=C[C@H](C)[C@H](CC[C@@H]3C[C@@H](O)CC(=O)O3)[C@H]21 ?
f

Could you kindly confirm the outcome this assay logged for COc1ccc(/C=C/S(=O)(=O)NC(=O)c2ccc(C)cc2Cl)cc1 ?
f

Could you kindly confirm the outcome this assay logged for CC/C(=C(\c1ccccc1)c1ccc(OCCN(C)C)cc1)c1ccccc1 ?
f

Could you kindly confirm the outcome this assay logged for CCCN(CCC)c1c([N+](=O)[O-])cc(C(F)(F)F)c(N)c1[N+](=O)[O-] ?
f

----------
read-out: Interferon-gamma inducible Protein 10 (IP10), CXCL10 (gene 3627); test: BSK_hDFCGF_IP10: BioMAP Diversity Plus: hDFCGF Assay for Interferon-gamma inducible Protein 10 (IP10) Biomarker Activity (AID 2283053); conditions: primary human foreskin fibroblasts; actives raise or lower the signal
The source made the active and inactive calls. Rule for the calls: active = hit-call score of the fitted dose curve at least 0.9, where 1 is the maximum; inactive = score below 0.9.
Could you please pick one outcome from this set? active, inactive

> print(dat)
                                   compound  assigned.label
1          COCC(=O)N(c1c(C)cccc1C)N1CCOC1=O        inactive
2  O=c1c2ccccc2c(=O)c2c1cc(Cl)c1[nH]c3c([nH]c12)c(Cl)cc1c(=O)c2ccccc2c(=O)c13          active
3                           Oc1cc(Cl)ccc1Cl        inactive

Could you kindly confirm the outcome this assay logged for c1ccc(Nc2ccc3ccccc3c2)cc1 ?
active

Could you kindly confirm the outcome this assay logged for CCc1cc(C)cc(CC)c1-c1c(OC(=O)C(C)(C)C)n2n(c1=O)CCOCC2 ?
inactive

Could you kindly confirm the outcome this assay logged for O=c1[nH]c(Cl)c(Cl)cc1Cl ?
inactive

Could you kindly confirm the outcome this assay logged for CC1(C)[C@H](C(=O)O[C@H](C#N)c2cccc(Oc3ccccc3)c2)[C@@H]1C=C(Br)Br ?
inactive

Could you kindly confirm the outcome this assay logged for CCCC[N+](CCCC)(CCCC)CCCC ?
inactive

Could you kindly confirm the outcome this assay logged for O=S(=O)(c1ccccc1)c1ccccc1 ?
inactive

----------
target: human Retinoid X Receptor beta (RXRb), RXRB (gene 6257) (UniProt P28702); test: ATG_RXRb_TRANS: Attagene TRANS-FACTORIAL HepG2 Assay for human Retinoid X Receptor beta (RXRb) (AID 2283013)
Sequence (P28702 whole entry, looked up): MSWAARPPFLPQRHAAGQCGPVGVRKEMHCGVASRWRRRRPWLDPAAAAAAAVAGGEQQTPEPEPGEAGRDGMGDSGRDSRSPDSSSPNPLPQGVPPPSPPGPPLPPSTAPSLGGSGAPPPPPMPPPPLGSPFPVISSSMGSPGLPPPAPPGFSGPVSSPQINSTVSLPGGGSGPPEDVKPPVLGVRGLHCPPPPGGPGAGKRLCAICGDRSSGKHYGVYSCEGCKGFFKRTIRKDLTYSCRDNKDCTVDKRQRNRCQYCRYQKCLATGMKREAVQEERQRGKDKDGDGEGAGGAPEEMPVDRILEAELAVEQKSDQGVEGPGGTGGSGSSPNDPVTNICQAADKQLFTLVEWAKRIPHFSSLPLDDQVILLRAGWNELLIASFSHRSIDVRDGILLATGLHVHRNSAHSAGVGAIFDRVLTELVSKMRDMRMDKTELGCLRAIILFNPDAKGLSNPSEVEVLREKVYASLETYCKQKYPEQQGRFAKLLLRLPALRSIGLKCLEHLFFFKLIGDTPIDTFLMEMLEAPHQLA
Inconclusive results are not listed. The source made the active and inactive calls. Rule for the calls: active = hit-call score of the fitted dose curve at least 0.9, where 1 is the maximum; inconclusive = response in the unintended direction; inactive = score below 0.9.
READOUT LABEL: AC50

Consider the following illustrative entries.
> print(dat)
                                   molecule            result
1                CCCOC(=O)c1ccccc1C(=O)OCCC  76.1 µM (active)
2                         CC(=O)C=Cc1ccccc1          inactive
3                             CCN(CC)C(=S)S          inactive
4  CC(Cc1ccc(C(C)(C)C)cc1)CN1C[C@@H](C)O[C@@H](C)C1 (stereo partly drawn)          inactive
5           CSc1nc(N=[N+]=[N-])nc(NC(C)C)n1          inactive
6          CCC1CCC(=O)O1 (stereo not drawn)          inactive
7                                NNc1ccccc1          inactive

Please look at the following molecule next.
Recorded AC50 of CC(C)(O)C#N , please.
78.5 µM (active)
